Molecular target: MMP-2 (Homo sapiens, UniProt P08253)
Construct: made in house; provided by Dr. Gregory Goldberg, Washington University
Sequence (P08253 110-660): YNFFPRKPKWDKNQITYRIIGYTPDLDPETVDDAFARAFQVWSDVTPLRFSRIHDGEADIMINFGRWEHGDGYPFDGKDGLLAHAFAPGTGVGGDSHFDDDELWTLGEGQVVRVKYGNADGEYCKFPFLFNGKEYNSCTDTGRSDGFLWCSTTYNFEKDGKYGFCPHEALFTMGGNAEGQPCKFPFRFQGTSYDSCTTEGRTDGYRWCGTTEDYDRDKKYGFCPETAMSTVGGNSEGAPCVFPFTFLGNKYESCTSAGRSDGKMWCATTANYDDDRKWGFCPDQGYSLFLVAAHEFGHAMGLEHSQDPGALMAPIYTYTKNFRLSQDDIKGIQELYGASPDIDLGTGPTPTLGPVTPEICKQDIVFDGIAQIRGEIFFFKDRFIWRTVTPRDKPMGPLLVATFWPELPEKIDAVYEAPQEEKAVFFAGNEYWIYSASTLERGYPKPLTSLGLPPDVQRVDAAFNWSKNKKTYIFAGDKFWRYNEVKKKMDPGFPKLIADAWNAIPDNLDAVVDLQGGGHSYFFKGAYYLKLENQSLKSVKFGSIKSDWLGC
Assay: biochemical
Conditions: recombinant human MMP-2, MCA peptide substrate 4 μM, pH 7.5, room temperature; read-out: MMP-2 IC50
pIC50: −log10 of the molar value.
Label 1 (yes) when pIC50 is at or above 6; anything below gets 0 (no).

O=C(NO)C1(S(=O)(=O)c2ccc(N3CCCCC3CCOCc3ccc(Cl)c(Cl)c3)cc2)CCOCC1 (stereo not shown) [Example 513] : 0 (no)
Cc1ccc(C(O)C2CCN(c3ccc(S(=O)(=O)C4(C(=O)NO)CCOCC4)cc3)CC2)cc1C (stereo not shown) [Example 826] : 1 (yes)
O=C(NO)C1(S(=O)(=O)c2ccc(N3CCC(c4ccccc4-c4ccc(F)cc4)CC3)cc2)CCOCC1 [Example 543] : 0 (no)
O=C(c1ccc2c(c1)OCO2)C1CCN(c2ccc(S(=O)(=O)C3(C(=O)NO)CCOCC3)cc2)CC1 [Example 796] : 1 (yes)

----------
target: MMP-13 (Homo sapiens); construct: made in house; host or cells: baculovirus / insect cells; test: biochemical; settings: recombinant human MMP-13, MCA peptide substrate 4 μM, pH 7.5, room temperature; read-out: MMP-13 IC50
Mark each entry Fulfilled if its IC50 sits below 3 nM, and Not fulfilled for all others.

O=C(c1ccco1)N1CCN(c2ccc(S(=O)(=O)C3(C(=O)NO)CCOCC3)cc2)CC1 : Not fulfilled
O=C(NCCc1ccccc1)OC1CCN(c2ccc(S(=O)(=O)C3(C(=O)NO)CCOCC3)cc2)CC1 : Not fulfilled
O=C(NO)C1(S(=O)(=O)c2ccc(N3CCC4CCCCC4C3)cc2)CCOCC1 (stereo not drawn) : Not fulfilled
COCCN1CCC(C(=O)NO)(S(=O)(=O)c2ccc(N3CCC(OCc4ccc(F)cc4C(F)(F)F)CC3)cc2)CC1 : Not fulfilled
COCCc1ccc(OC2CCN(c3ccc(S(=O)(=O)C4(C(=O)NO)CCOCC4)cc3)CC2)cc1 : Fulfilled
CCOc1ccc(NC(=O)OC2CCN(c3ccc(S(=O)(=O)C4(C(=O)NO)CCOCC4)cc3)CC2)cc1 : Not fulfilled
O=C(Nc1ccccc1OC(F)(F)F)C1CCN(c2ccc(S(=O)(=O)C3(C(=O)NO)CCOCC3)cc2)CC1 : Not fulfilled
O=C(NO)C1(S(=O)(=O)c2ccc(N3CCC(O)CC3)cc2)CCOCC1 : Not fulfilled
C=CCCC(=O)C1CCN(c2ccc(S(=O)(=O)C3(C(=O)NO)CCOCC3)cc2)CC1 : Not fulfilled
Cn1ccnc1CN1CCC(C(=O)NO)(S(=O)(=O)c2ccc(Oc3ccc(OC(F)(F)F)cc3)cc2)CC1 : Fulfilled
O=C(CCCCNCc1ccccn1)N1CCC(C(=O)NO)(S(=O)(=O)c2ccc(Oc3ccc(C(F)(F)F)cc3)cc2)CC1 : Fulfilled
O=C(c1cccc(F)c1)C1CCN(c2ccc(S(=O)(=O)C3(C(=O)NO)CCOCC3)cc2)CC1 : Not fulfilled
COCc1ccc(COC2CCN(c3ccc(S(=O)(=O)C4(C(=O)NO)CCOCC4)cc3)CC2)cc1 : Fulfilled
CCCCOC1CCN(c2ccc(S(=O)(=O)C3(C(=O)NO)CCNCC3)cc2)CC1 : Not fulfilled
O=C(NO)C1(S(=O)(=O)c2ccc(N3CCC(Sc4nc5ccccc5o4)CC3)cc2)CCN(C2CC2)CC1 : Not fulfilled
O=C(NO)C1(S(=O)(=O)c2ccc(N3CCC(c4ccccc4O)CC3)cc2)CCOCC1 : Not fulfilled
COc1ccc(COC2CCC(Oc3ccc(S(=O)(=O)C4(C(=O)NO)CCOCC4)cc3)C2)cc1 (stereo not drawn) : Not fulfilled
O=C(NO)C1(S(=O)(=O)c2ccc(N3CCN(c4ccc(C(F)(F)F)cc4)CC3)cc2)CCN(C2CC2)CC1 : Fulfilled
O=C(NO)C1(S(=O)(=O)c2ccc(N3CCCCC3CCOCc3cccc(C(F)(F)F)c3)cc2)CCOCC1 (stereo not drawn) : Not fulfilled
CC(=O)c1ccc(OC2CCN(c3ccc(S(=O)(=O)C4(C(=O)NO)CCOCC4)cc3)CC2)cc1 : Not fulfilled
COc1ccccc1COC1CCC(Oc2ccc(S(=O)(=O)C3(C(=O)NO)CCOCC3)cc2)C1 (stereo not drawn) [Example 740] : Not fulfilled
O=C(c1ccc(Cl)cc1)C1CCN(c2ccc(S(=O)(=O)C3(C(=O)NO)CCOCC3)cc2)CC1 : Fulfilled
CCN(CCCCC(=O)N1CCC(C(=O)NO)(S(=O)(=O)c2ccc(Oc3ccc(C(F)(F)F)cc3)cc2)CC1)Cc1ccncc1 : Fulfilled
O=C(CN1CCOCC1)N1CCC(C(=O)NO)(S(=O)(=O)c2ccc(Oc3ccc(C(F)(F)F)cc3)cc2)CC1 : Fulfilled
O=C(NO)C1(S(=O)(=O)c2ccc(Oc3cccnc3)cc2)CCSCC1 : Not fulfilled
CC1CC(C)CN(C(=O)C2CCN(c3ccc(S(=O)(=O)C4(C(=O)NO)CCN(C(=O)CNCCc5c[nH]cn5)CC4)cc3)CC2)C1 (stereo not drawn) : Not fulfilled
O=C(c1ccccc1)N1CCC(C(=O)NO)(S(=O)(=O)c2ccc(Oc3ccc(OC(F)(F)F)cc3)cc2)CC1 : Fulfilled
C=Cc1ccc(C(=O)C2CCN(c3ccc(S(=O)(=O)C4(C(=O)NO)CCOCC4)cc3)CC2)cc1 : Fulfilled
O=C(NO)C1(S(=O)(=O)c2ccc(N3CCC(SCc4ccccc4)CC3)cc2)CCN(C2CC2)CC1 : Fulfilled
